- protocol-summary: protein stability index of a GFP-peptide fusion (GPS, HEK-293T) (PSI 1-6); higher = more stable;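 further: 24-mer peptide tiles fused after GFP, lentivirally expressed, FACS-sorted into six equal bins by GFP/DsRed ratio, decoded by Illumina sequencing, PSI is the read-weighted mean bin number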
- details: treatment: MLN4924 1 uM, 8 h; c terminus: a fixed tail appended
Where protein stability index equals or exceeds 4, the correct label is 1; where it does not, the label is -1.

INSERT INTO assay_data (input_sequence, classification) VALUES
  ('LRLHDNPALKECIQGADTIRCVYI [CRY1]', -1),
  ('CRCKNSNTVYCKLESCPSRGQGKP [SPRY1]', -1),
  ('NIRQKVKELVEFAQDDDRLREERK [CLINT1]', 1),
  ('KVLILRNHGLVSVGESVEEAFYYI [ADD1]', -1),
  ('EKALQVLVDQSKKANSPLKGHERT [VPS39]', 1),
  ('CEETGELFEEPAPQALATRALPCP [FCHSD1]', 1);

Now consider the entry below.
Could you verify whether the entry TLEQHLNTLEGKKPGNNEGSGAPS [SNAP91] shows protein stability index of no less than 4?
1

The measured values listed here are drawn from the supplement of paper PMC10567573.
